Molecular target: T1, human IL-18BP (interleukin-18 binding protein, isoform A) (human, UniProt O95998 31-194)
T1 construct: cell assays used Sino Biological 10357-H08H; PBMC assay 1 relies on endogenous IL-18BP; UniProt number is printed as 095998; also called hIL-18BP
T1 sequence: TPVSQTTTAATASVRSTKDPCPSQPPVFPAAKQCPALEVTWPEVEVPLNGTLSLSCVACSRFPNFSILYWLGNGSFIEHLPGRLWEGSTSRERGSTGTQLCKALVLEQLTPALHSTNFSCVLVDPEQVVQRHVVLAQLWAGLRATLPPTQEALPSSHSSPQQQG
Assay: BLI, affinity column of Table E8
pKd: −log10 of the molar value.
Metric: pKd

Binder	Metric	Obs value
SA330a (antibody, human IgG1, V domains shown, humanized; human IgG1 (suffix a), kappa) VH: QVQLQESGPGLVKPSQTLSLTCTVSGYSITSDYNAHWIRQPPGKGLEWIGYIHYSGQTYYNPSLKSRVTISRDTSKNQFSLKLSSVTAADTAVYYCARNFGSIYVNYFDYWGQGTLVTVSS VL: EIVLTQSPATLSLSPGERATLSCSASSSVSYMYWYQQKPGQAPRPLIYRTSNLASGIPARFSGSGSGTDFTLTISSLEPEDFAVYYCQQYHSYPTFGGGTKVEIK	pKd	10.12
SA319a (antibody, human IgG1, V domains shown, humanized; human IgG1 (suffix a), kappa) VH: QVQLQESGPGLVKPSQTLSLTCTVSGYSITQDYNAHWIRQPPGKGLEWIGYIHYSGQTNYNPSLKSRVTISRDTSKNQFSLKLSSVTAADTAVYYCARNFGSIYVNYFDYWGQGTLVTVSS VL: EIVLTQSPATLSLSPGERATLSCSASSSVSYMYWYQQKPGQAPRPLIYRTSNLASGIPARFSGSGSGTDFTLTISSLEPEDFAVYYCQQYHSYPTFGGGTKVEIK	pKd	9.60

Recorded values, source patent US20250368745A1.
